# Tested on: Detroit 98
# experiment summary: Concentration that inhibited the growth of cultured human detroit 98 cells.
# Format: functional
# assay setup: read-out: ED50 (the source's name)
pEC50: −log10 of the molar value.
Mark criterion not met for pEC50 values under 6, and criterion met for everything at or above.

molecule="NNc1ncnc2c1cnn2C1O[C@H](CO)[C@@H](O)[C@H]1O (stereo not given in full)" class_label="criterion not met"
molecule="OC[C@H]1OC(n2ncc3c(NCc4ccco4)ncnc32)[C@H](O)[C@@H]1O (stereo not given in full)" class_label="criterion met"
molecule="CCCCCCN(CCCCCC)c1ncnc2c1cnn2C1O[C@H](CO)[C@@H](O)[C@H]1O (stereo not given in full)" class_label="criterion not met"

Moving on to the next molecule.
# bool: pEC50 of Nc1ncnc2c1ncn2[C@@H]1O[C@H](CO)[C@@H](O)[C@H]1O >= 6
criterion met

###

Known MIC of a selection of compounds
# Test system: Eimeria tenella
# experiment summary: In vitro minimum inhibitory concentration for Eimeria tenella in embryonic chick liver cells
# Type: functional

Guide cases for MIC, answers given:
compound="OC[C@H]1OC(n2ncc3c(NCCc4ccccc4)ncnc32)[C@H](O)[C@@H]1O (stereo partly specified)" result="5 µg/mL"
compound="CCCCNc1ncnc2c1cnn2C1O[C@H](CO)[C@@H](O)[C@H]1O (stereo partly specified)" result="1.25 µg/mL"
compound="CN(C)c1ncnc2c1cnn2C1O[C@H](CO)[C@@H](O)[C@H]1O (stereo partly specified)" result="5 µg/mL"
compound="CC(C)=CCNc1ncnc2c1cnn2C1O[C@H](CO)[C@@H](O)[C@H]1O (stereo partly specified)" result="5 µg/mL"
compound="CCCCCCNc1ncnc2c1cnn2C1O[C@H](CO)[C@@H](O)[C@H]1O (stereo partly specified)" result="1.25 µg/mL"

Answer with reported MIC of CCCCCCCCNc1ncnc2c1cnn2C1O[C@H](CO)[C@@H](O)[C@H]1O (stereo partly specified)
5 µg/mL

Answer with reported MIC of O=c1[nH]cnc2c1cnn2[C@@H]1O[C@H](CO)[C@@H](O)[C@H]1O
20 µg/mL

Answer with reported MIC of CCNc1ncnc2c1cnn2C1O[C@H](CO)[C@@H](O)[C@H]1O (stereo partly specified)
5 µg/mL

###

# Test system: Eimeria tenella
# experiment summary: In vitro minimum inhibitory concentration for Eimeria tenella in embryonic chick liver cells
# Assay type: functional
measured endpoint: MIC (µg/mL)
Your answer should be a plain number; it is taken to be in µg/mL.

Guide cases for MIC, answers given:
compound="CCN(CC)c1ncnc2c1cnn2C1O[C@H](CO)[C@@H](O)[C@H]1O (stereo partly drawn)" measured_endpoint=MIC uom=µg/mL recorded_number=5
compound="OC[C@H]1OC(n2ncc3c(NCc4ccco4)ncnc32)[C@H](O)[C@@H]1O (stereo partly drawn)" measured_endpoint=MIC uom=µg/mL recorded_number=0.31
compound="CNc1ncnc2c1cnn2C1O[C@H](CO)[C@@H](O)[C@H]1O (stereo partly drawn)" measured_endpoint=MIC uom=µg/mL recorded_number=0.31
compound="OC[C@H]1OC(n2ncc3c(NCc4ccccc4)ncnc32)[C@H](O)[C@@H]1O (stereo partly drawn)" measured_endpoint=MIC uom=µg/mL recorded_number=0.31
compound="CCCCN(CC)c1ncnc2c1cnn2C1O[C@H](CO)[C@@H](O)[C@H]1O (stereo partly drawn)" measured_endpoint=MIC uom=µg/mL recorded_number=5

Answer with reported MIC of NNc1ncnc2c1cnn2C1O[C@H](CO)[C@@H](O)[C@H]1O (stereo partly drawn)
5

Answer with reported MIC of OC[C@H]1OC(n2ncc3c(NC4CCCC4)ncnc32)[C@H](O)[C@@H]1O (stereo partly drawn)
0.31
